study-target: full-length AR (endogenous, LNCaP) (Homo sapiens, UniProt P10275, T878A)
Construct: endogenous full-length AR of LNCaP cells
Sequence (P10275 1-920 T878A): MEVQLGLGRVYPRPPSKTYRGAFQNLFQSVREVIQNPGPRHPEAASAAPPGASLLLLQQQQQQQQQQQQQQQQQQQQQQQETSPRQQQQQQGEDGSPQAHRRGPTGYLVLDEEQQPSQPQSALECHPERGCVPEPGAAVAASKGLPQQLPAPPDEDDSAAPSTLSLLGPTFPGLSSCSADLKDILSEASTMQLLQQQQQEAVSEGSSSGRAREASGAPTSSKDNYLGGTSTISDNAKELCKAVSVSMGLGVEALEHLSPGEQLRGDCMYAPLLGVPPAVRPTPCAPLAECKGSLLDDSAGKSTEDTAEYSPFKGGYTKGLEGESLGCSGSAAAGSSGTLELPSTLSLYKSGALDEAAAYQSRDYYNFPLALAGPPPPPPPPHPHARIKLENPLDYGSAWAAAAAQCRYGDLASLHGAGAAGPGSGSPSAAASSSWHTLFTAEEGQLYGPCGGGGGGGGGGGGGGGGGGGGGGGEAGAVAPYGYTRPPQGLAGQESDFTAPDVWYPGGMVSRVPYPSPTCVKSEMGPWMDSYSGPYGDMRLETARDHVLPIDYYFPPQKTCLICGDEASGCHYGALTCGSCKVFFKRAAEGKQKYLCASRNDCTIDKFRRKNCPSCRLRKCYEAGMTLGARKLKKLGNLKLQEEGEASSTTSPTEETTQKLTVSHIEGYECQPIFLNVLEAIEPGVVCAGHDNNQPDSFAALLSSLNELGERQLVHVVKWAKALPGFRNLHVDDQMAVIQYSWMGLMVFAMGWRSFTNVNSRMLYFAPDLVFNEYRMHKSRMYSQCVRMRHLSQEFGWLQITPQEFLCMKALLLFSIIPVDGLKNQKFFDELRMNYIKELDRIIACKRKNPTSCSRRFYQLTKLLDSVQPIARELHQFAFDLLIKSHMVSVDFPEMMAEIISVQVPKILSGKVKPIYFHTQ
assay-method-text: PB-luciferase reporter in LNCaP cells
recorded-conditions: R1881-induced, serum-free, […] h; antagonist, AF-1 directed; covalent
measurement-label: IC50 (µM)
The reply should be a number in µM, with the unit left off.

Query: // map CCCCCCCCCCCCC(=O)/C=C/CCCOC[C@@H](O)CO [(S)-niphatenone B] to recorded IC50 (system: full-length AR (endogenous, LNCaP) (Homo sapiens, UniProt P10275, T878A))
Response: 5.7

Query: What would you report for CCCCCCCCCCCCC(=O)/C=C/CCCOC[C@H](O)CO [(R)-niphatenone B] ?
Response: 6.3

// provenance: paper PMC4182434
